SYSTEM NAME: DRB3*0101 (Homo sapiens, UniProt P01903+P79483)
PROCEDURE DETAILS: biochemical
Format: binding
No end group written: not given here.
METRIC NAME: IC50

DGVSHAQLPARRAEP [Peptide 1543.18]	> 20 µM
LETIYNSQYSNEKWT [Peptide 1601.03]	> 20 µM
DFLNTVKIPNTVSVS [Peptide 1601.28]	> 20 µM
QWVLTAAHCLKKNSQ [Peptide 68.0004]	> 20 µM
PEEFLRPRSLQCVSL [Peptide 68.0015]	> 20 µM
QKGRGYRGQHQAHSLERVCH [Peptide F025.05]	> 20 µM
YDPLYCESVHNFTLP [Peptide 68.0041]	> 20 µM
RVCLLFYSKVRKYRY [Peptide 1543.54]	0.868 µM
TRPRTLHELCEVLEE [Peptide 1543.42]	> 20 µM
PTGCLKKHGYTVEVQ [Peptide 1601.23]	> 20 µM
TELNTSLQDIEITCV [Peptide 1543.34]	> 20 µM
QERPRKLPQLCTELQ [Peptide 1543.22]	> 20 µM
VHEGIRTYFVQFKDD [Peptide 1601.05]	9.92 µM
GRVNTHVHNPLLCSS [Peptide 1601.34]	> 20 µM
GQRVPVSHSFPHPLY [Peptide 68.0005]	> 20 µM
YENDSTDLRDHIDYW [Peptide 1601.01]	8.55 µM
PCHTTKLLHRDSVDS [Peptide 1601.07]	> 20 µM
LKGDANILKCLRYRL [Peptide 1601.26]	3.19 µM
QSTQVDIRILQELLM [Peptide 1543.11]	> 20 µM
NGVLQGITSWGPEPC [Peptide 68.0017]	> 20 µM
NCNSNTTPIVHLKGD [Peptide 1601.08]	> 20 µM
YRHYQYSLYGKTLEE [Peptide 1543.58]	> 20 µM
LSGLHGQDLFGIWSK [Peptide 68.0040]	> 20 µM
STWHWTGCNKNTGIL [Peptide 1601.38]	> 20 µM
EISFAGIVTKLPTAN [Peptide 89.0174]	0.07 µM
SDEISFAGIVTKLPT [Peptide 1601.45]	> 20 µM

###

SYSTEM NAME: A*6801 (Homo sapiens, UniProt P04439, A269V/D185E/E176V/E277Q/E87N/F33Y/G231S/I121M/I166T/I218V/L180W/L300P/L318F/N151K/P208A/P217A/Q86R/R169H/T345S)
PROCEDURE DETAILS: biochemical
pIC50: −log10 of the molar value.
METRIC NAME: pIC50

CSCC[C@H](NC(=O)[C@@H](N)CCCCN)C(=O)N[C@@H](Cc1ccccc1)C(=O)N[C@@H](CS)C(=O)N[C@@H](CCC(N)=O)C(=O)N[C@@H](CC(C)C)C(=O)N[C@@H](C)C(=O)N[C@@H](CCCCN)C(=O)O [Peptide 1556.52]	5.89
CSCC[C@H](NC(=O)[C@@H](NC(=O)[C@H](C)N)[C@@H](C)O)C(=O)N[C@@H](CS)C(=O)N[C@@H](CCCCN)C(=O)N[C@@H](Cc1c[nH]cn1)C(=O)N[C@@H](Cc1ccc(O)cc1)C(=O)N[C@@H](CCCNC(=N)N)C(=O)N[C@@H](CCCNC(=N)N)C(=O)O [Peptide 88.0343]	7.26

###

SYSTEM NAME: A31 (A*3101) (Homo sapiens, UniProt P04439, A270S/D185E/E176V/E277Q/F33T/G231S/G80R/H175R/I121M/I218V/I322F/K168Q/L300P/L318F/M331R/P217A/Q94H/R138Q/T323A/T345S/T97I/V358M)
PROCEDURE DETAILS: biochemical
Format: binding
No end group written: not given here.
Recorded IC50 values for a group of sequences are listed next.
METRIC NAME: IC50 (nM)

LVKHHMYVSK [Peptide 9017.0216]	347
LLYGPANTGK [Peptide 1587.56]	6300
DFISFLSYFK [Peptide 88.0188]	2630
IVGWPAVRER [Peptide 9017.0186]	110
FLSQVKIPK [Peptide 1589.05]	72
GLVFGILIKR [Peptide 9012.0244]	2110
GVLILALLR [Peptide 88.0338]	2300
HLFGYSFYK [Peptide 76.0190]	27
SVAALYWYR [Peptide 88.0341]	3.7
VVVKSPNHVK [Peptide 9012.0255]	7700
AFNSSHKGR [Peptide 88.0394]	55
NSNASAFLK [Peptide 1587.07]	3400
ISKQPLPQTR [Peptide 9017.0207]	83
KLFGYSWYK [Peptide 76.0146]	7.3
FLSALKLFLK [Peptide 1587.38]	984
RVLQGLPREK [Peptide 9012.0238]	88
WTIAYIEYR [Peptide 9017.0116]	97
KTTVLFKFK [Peptide 88.0369]	36
GQVDYYGLYY [Peptide 1589.02]	5400
LLCGPANTGK [Peptide 88.0195]	3650
RFHNIAGHYR [Peptide 78.0097]	11
KQRFHNIRGR [Peptide 78.0083]	178
VTIRVGGQLR [Peptide 1516.07]	32
RLIDRIRER [Peptide 9017.0123]	4.6
TIVYIEYRK [Peptide 9017.0118]	13700
TIAYIEYRK [Peptide 9017.0119]	3300

###

Recorded IC50 values for a group of compounds are listed next.
SYSTEM NAME: DRB5*0101 (Homo sapiens, UniProt P01903+Q30154)
PROCEDURE DETAILS: biochemical
CONDITION DESCRIPTION: Binding affinity DRB5 *0101
METRIC NAME: IC50

CC[C@H](C)[C@H](NC(=O)[C@H](Cc1c[nH]cn1)NC(=O)[C@H](C)NC(=O)[C@H](Cc1ccc(O)cc1)NC(=O)[C@H](CC(C)C)NC(=O)[C@@H](NC(=O)[C@H](Cc1ccccc1)NC(=O)[C@@H]1CCCN1C(=O)[C@H](CCC(N)=O)NC(=O)[C@@H](NC(=O)[C@H](CC(C)C)NC(=O)[C@@H](NC(=O)[C@H](CCCCN)NC(=O)[C@@H](N)Cc1ccccc1)[C@@H](C)O)[C@@H](C)CC)[C@@H](C)CC)C(=O)N[C@@H](CCC(N)=O)C(=O)O [Peptide 89.0025]	8.43 µM
CC[C@H](C)[C@H](N)C(=O)N[C@@H](CCC(=O)O)C(=O)N[C@@H](Cc1ccccc1)C(=O)N[C@H](C(=O)N[C@H](C(=O)N[C@@H](Cc1ccccc1)C(=O)N[C@@H](CC(C)C)C(=O)NCC(=O)N[C@@H](C)C(=O)N[C@@H](CC(C)C)C(=O)N[C@@H](CCCCN)C(=O)N[C@@H](CO)C(=O)N[C@@H](Cc1ccccc1)C(=O)N[C@@H](CC(C)C)C(=O)N[C@@H](CCCCN)C(=O)O)[C@@H](C)O)[C@@H](C)CC [Peptide 89.0033]	0.034 µM
CC[C@H](C)[C@H](N)C(=O)N[C@@H](CO)C(=O)N[C@H](C(=O)N[C@H](C(=O)N[C@@H](CC(N)=O)C(=O)N[C@@H](CCC(=O)O)C(=O)N[C@@H](CC(=O)O)C(=O)NCC(=O)N[C@@H](CC(N)=O)C(=O)N[C@@H](CCC(=O)O)C(=O)N[C@H](C(=O)N[C@@H](Cc1ccccc1)C(=O)N[C@@H](CC(N)=O)C(=O)N[C@H](C(=O)N[C@@H](CO)C(=O)O)[C@@H](C)O)[C@@H](C)CC)[C@@H](C)CC)[C@@H](C)CC [Peptide 68.0166]	> 20 µM
CC(C)C[C@H](NC(=O)[C@H](CC(=O)O)NC(=O)[C@H](CCCCN)NC(=O)[C@H](Cc1ccccc1)NC(=O)[C@H](C)NC(=O)[C@H](Cc1ccccc1)NC(=O)[C@H](CCC(=O)O)NC(=O)[C@H](Cc1ccccc1)NC(=O)[C@@H](NC(=O)[C@@H](N)CCC(=O)O)C(C)C)C(=O)N[C@@H](Cc1ccccc1)C(=O)N[C@H](C(=O)N[C@H](C(=O)N[C@@H](Cc1ccc(O)cc1)C(=O)N[C@@H](CCCNC(=N)N)C(=O)O)C(C)C)C(C)C [Peptide 1543.35]	> 20 µM
CC[C@H](C)[C@H](NC(=O)[C@@H](N)CCC(=O)O)C(=O)N[C@H](C(=O)N[C@@H](CC(C)C)C(=O)N[C@@H](Cc1c[nH]cn1)C(=O)N[C@@H](CC(C)C)C(=O)N[C@@H](CCC(=O)O)C(=O)N1CCC[C@H]1C(=O)N[C@@H](CCC(N)=O)C(=O)N[C@@H](CC(N)=O)C(=O)N[C@@H](CCC(=O)O)C(=O)N[C@@H](CC(C)C)C(=O)N[C@@H](CC(=O)O)C(=O)N1CCC[C@H]1C(=O)N[C@H](C(=O)O)C(C)C)C(C)C [Peptide 1543.20]	> 20 µM
CC[C@H](C)[C@H](NC(=O)[C@H](CO)NC(=O)[C@H](CC(C)C)NC(=O)[C@@H](NC(=O)[C@H](CC(C)C)NC(=O)[C@H](CC(=O)O)NC(=O)[C@H](Cc1c[nH]c2ccccc12)NC(=O)[C@@H](N)CCSC)C(C)C)C(=O)N[C@@H](C)C(=O)N[C@@H](CC(C)C)C(=O)N[C@@H](CO)C(=O)N[C@H](C(=O)NCC(=O)N[C@@H](CS)C(=O)N[C@H](C(=O)O)[C@@H](C)O)C(C)C [Peptide 68.0001]	> 20 µM
CC[C@H](C)[C@H](NC(=O)[C@@H]1CCCN1C(=O)[C@@H](N)CC(N)=O)C(=O)N[C@@H](CC(C)C)C(=O)N[C@@H](CC(C)C)C(=O)N[C@@H](Cc1c[nH]c2ccccc12)C(=O)N[C@@H](CCC(N)=O)C(=O)N1CCC[C@H]1C(=O)N[C@H](C(=O)N1CCC[C@H]1C(=O)N[C@H](C(=O)N[C@@H](Cc1c[nH]cn1)C(=O)N[C@H](C(=O)N[C@H](C(=O)N1CCC[C@H]1C(=O)O)C(C)C)[C@@H](C)O)C(C)C)[C@@H](C)CC [Peptide 68.0036]	> 20 µM
CC[C@H](C)[C@H](NC(=O)[C@H](Cc1c[nH]c2ccccc12)NC(=O)[C@H](CCC(=O)O)NC(=O)[C@@H]1CCCN1)C(=O)N[C@@H](CCC(N)=O)C(=O)N[C@@H](CCCNC(=N)N)C(=O)N[C@@H](CCC(N)=O)C(=O)N[C@H](C(=O)N[C@H](C(=O)N[C@@H](CC(C)C)C(=O)N[C@@H](CCC(N)=O)C(=O)N[C@@H](Cc1c[nH]cn1)C(=O)N[C@@H](CO)C(=O)N[C@@H](Cc1ccccc1)C(=O)N[C@@H](CC(N)=O)C(=O)O)C(C)C)[C@@H](C)O [Peptide 89.0011]	11.8 µM
CC[C@H](C)[C@H](NC(=O)[C@@H]1CCCN1C(=O)[C@H](Cc1c[nH]cn1)NC(=O)[C@@H](NC(=O)[C@@H]1CCCN1C(=O)[C@@H](NC(=O)[C@H](CO)NC(=O)[C@@H]1CCCN1C(=O)[C@H](CC(C)C)NC(=O)CNC(=O)[C@@H](NC(=O)[C@H](C)NC(=O)[C@H](CCC(=O)O)NC(=O)[C@H](C)N)C(C)C)[C@@H](C)CC)C(C)C)C(=O)NCC(=O)O [Peptide 68.0101]	> 20 µM

These entries and their values trace back to patent US9340577B2.
